meta.source: ChEMBL document CHEMBL4311962

- Test system: Mycobacterium tuberculosis
- Experiment notes: Antimycobacterial activity against multidrug (ethambutol, INH and RIF)-resistant Mycobacterium tuberculosis clinical isolate 2 assessed as inhibition of bacterial growth incubated for 7 days by rapid direct susceptibility test technique
- Assay type: functional
- Assay conditions: 168 h
Examples of compounds with documented MIC follow.
Form entry: value (µg/mL) — number only.

{"Structure smiles": "CCOC(=O)c1c(-c2ccc(F)cc2)oc2ccc(OCCN3C(=O)C(=O)c4cc(F)ccc43)cc12", "MIC [µg/mL]": 2}
{"Structure smiles": "CCOC(=O)c1c(-c2ccc(F)cc2)oc2ccc(OCCCCCCN3C(=O)/C(=N/OC)c4ccccc43)cc12", "MIC [µg/mL]": 0.25}
{"Structure smiles": "CCOC(=O)c1c(-c2ccc(F)cc2)oc2ccc(OCCCN3C(=O)/C(=N/O)c4ccccc43)cc12", "MIC [µg/mL]": 4}
{"Structure smiles": "CCOC(=O)c1c(-c2ccccc2)oc2ccc(OCCCN3C(=O)/C(=N/O)c4ccccc43)cc12", "MIC [µg/mL]": 16}
{"Structure smiles": "CCOC(=O)c1c(-c2ccccc2)oc2ccc(OCCCN3C(=O)/C(=N/O)c4cc(OC)ccc43)cc12", "MIC [µg/mL]": 16}
{"Structure smiles": "CCOC(=O)c1c(-c2ccc(OC)cc2)oc2ccc(OCCCN3C(=O)C(=O)c4cc(F)ccc43)cc12", "MIC [µg/mL]": 2}
{"Structure smiles": "CCO/N=C1\\C(=O)N(CCCCCCOc2ccc3oc(-c4ccc(F)cc4)c(C(=O)OCC)c3c2)c2ccc(OC)cc21", "MIC [µg/mL]": 1}

Now let's try a different one.
Input: Read the entry CCOC(=O)c1c(-c2ccccc2)oc2ccc(OCCCN3C(=O)C(=O)c4ccccc43)cc12 and write its reported MIC.
Output: 8
